Test system: SR leukemia
Assay: NCI-60 one-dose screen, 48 h
Conditions: 10 µM unless noted
The panel holds about 83,000 compounds, 20% with a hit somewhere; the sample as a whole holds those more often. Active and inactive are the calls of the source. Rule for the calls: active = growth percent below 10; inactive = the rest.
Mark one answer only. Choices: 1 = active, -1 = inactive

Look over these answered cases.
compound=CN(C)c1ccc(Nc2c3ccccc3nc3cc(NC(=O)CCN4CCCC4)ccc23)cc1 system_tested="SR leukemia" assigned_label=1
compound="COc1cc2c(c(OC)c1OC)CCC(c1cccc(NC(=O)c3cccc(Br)c3)c1)O2 (centres undefined)" system_tested="SR leukemia" assigned_label=-1
compound=C=C(C)[C@@H]1CC[C@]2(C(=O)N[C@H](CO)Cc3ccccc3)CC[C@]3(C)[C@H](CC[C@@H]4[C@@]5(C)CCCNC(C)(C)[C@@H]5CC[C@]43C)[C@@H]12 system_tested="SR leukemia" assigned_label=1

Now for another entry.
Per the records of this test, what outcome belongs to C[C@H]1[C@H](C)CC[C@]2(C(=O)Nc3ccc4ncccc4c3)CC[C@]3(C)C(=CC[C@@H]4[C@@]5(C)CCCNC(C)(C)[C@@H]5CC[C@]43C)[C@H]12 ?
1
